Molecular target: Fibroblast growth factor 22 (Homo sapiens)
Test: binders of human FGF22 protein, primary screen, FGF22 synaptogenesis inhibitor project, biophysical, thermal shift, single point (AID 651658)
Conditions: recombinant FGF22 thermal shift, SYPRO orange fluorescence; at 9.99 µM; percent of sucrose octasulfate shift, DMSO zero
In all, about 340,000 compounds went through this assay and about 5,100 (1.5%) were called active.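 How the source made its calls: active means mean Tm shift, scaled 0 neutral to 100 positive control, at about 1.3% or above, every replicate too (limit read from the data); inconclusive means no clear call, values can overlap the other calls; inactive means the rest.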 The full list was thinned out, with actives kept by preference.
Outcome (select one): yes for active, no for inactive

Here's what some known entries look like.
COc1ccc(S(=O)(=O)Nc2ccc3c(c2)CC(=O)N([C@H](C)CO)C[C@H](C)[C@@H](CN(C)C(=O)NC(C)C)O3)cc1 : no
O=C1C[C@@](C(=O)NCC(F)(F)F)(c2ccc([N+](=O)[O-])cc2)[C@@H](c2ccc(CO)cc2I)N1C1CCCCC1 : no
CCCCCOc1ccc(/C=C/C(=O)NCCc2nc3ccccc3[nH]2)cc1OC : no
CCN(CC)S(=O)(=O)c1ccc(Cl)c(C(=O)NC(C)C(c2cccs2)N2CCCC2)c1 (stereo not drawn) : yes
O=C(CNC(=O)c1cccnc1)N/N=C/c1cc(Br)c(O)c(Br)c1 : no

Consider the record given below.
What outcome does the record of this test show for CCOc1ccc(/C=C(/C#N)c2nnc(N3CCOCC3)n2-c2ccccc2)cc1OC ? no

* * *

Target: Fibroblast growth factor 22 (Homo sapiens)
Assay: binders of human FGF22 protein, primary screen, FGF22 synaptogenesis inhibitor project, biophysical, thermal shift, single point (AID 651658)
Conditions: recombinant FGF22 thermal shift, SYPRO orange fluorescence; at 9.99 µM; percent of sucrose octasulfate shift, DMSO zero
The campaign covered roughly 340,000 compounds. About 5,100 (1.5%) were called active.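 How the source made its calls: active means mean Tm shift, scaled 0 neutral to 100 positive control, at about 1.3% or above, every replicate too (limit read from the data); inconclusive means no clear call, values can overlap the other calls; inactive means the rest.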 The sample as a whole holds a higher share of actives than the screen did.
Write down the outcome that applies. Available outcomes: 1 (yes) for active, 0 (no) for inactive

O=C(CSc1nnc(-c2ccncc2)o1)Nc1cccc(Cl)c1 : 0 (no)

Shift focus to the following entry.
Name the outcome recorded for CC(C)(C)S(=O)N1Cc2cc(C(=O)O)nc(-c3cccc(-c4cc5ccccc5o4)c3)c2[C@@H]1CCO (stereo partly specified) in the assay. 0 (no)

* * *

Molecular target: Fibroblast growth factor 22 (Homo sapiens)
Test: binders of human FGF22 protein, primary screen, FGF22 synaptogenesis inhibitor project, biophysical, thermal shift, single point (AID 651658)
Settings: recombinant FGF22 thermal shift, SYPRO orange fluorescence; at 9.99 µM; active compounds read high; percent of sucrose octasulfate shift, DMSO zero
Screen size: about 340,000 compounds; about 5,100 (1.5%) were called active. The sample as a whole holds a higher share of actives than the screen did.
measured.property: activity (Tm shift, normalised) (%)
One number for each entry, in %.

Below are worked cases with known answers.
Cc1cccc(C)c1OCC(=O)NC(Cc1c[nH]c2ccccc12)C(=O)O (centres undefined) : -0.152
CCS(=O)(=O)NCC[C@H]1CC[C@@H](NC(=O)Nc2cc(Cl)cc(Cl)c2)[C@@H](CO)O1 : 0.003
COc1ccccc1S(=O)(=O)N(C)C[C@H]1Oc2cc(C#CCC3CCCC3)ccc2S(=O)(=O)N([C@@H](C)CO)C[C@H]1C : 0.195
COc1ccc(-c2cc(C(=O)NC(Cc3c[nH]c4ccccc34)C(=O)O)c(C)o2)cc1OC (centres undefined) : 1.25
CCC(=O)N(C)C[C@@H]1Oc2ncc(C#Cc3cccnc3)cc2C(=O)N([C@@H](C)CO)C[C@@H]1C : 0.101

Please state, for each entry, its recorded activity (Tm shift, normalised).
1. CCCN1C2CCCC1CC(NC(=O)c1cccc(OC)c1)C2 (centres undefined)
2. C=CCN1C2CCCC1CC(NC(=S)Nc1cccc(OC)c1)C2 (centres undefined)
3. COc1ccc(-c2cc(=O)oc3cc(OCC(=O)N[C@@H](Cc4c[nH]c5ccccc45)C(=O)O)ccc23)cc1
4. CCC(=O)Nc1ccc2c(c1)C(=O)N(C)C[C@H](OC)[C@H](C)CN(C(=O)c1ccccn1)[C@@H](C)CO2

-0.224
43.2
2.9
0.116

* * *

Assignment: determine reported activity (Tm shift, normalised) for the given compounds.
Target: Fibroblast growth factor 22 (Homo sapiens) (UniProt Q9HCT0)
Sequence (Q9HCT0 whole entry, looked up): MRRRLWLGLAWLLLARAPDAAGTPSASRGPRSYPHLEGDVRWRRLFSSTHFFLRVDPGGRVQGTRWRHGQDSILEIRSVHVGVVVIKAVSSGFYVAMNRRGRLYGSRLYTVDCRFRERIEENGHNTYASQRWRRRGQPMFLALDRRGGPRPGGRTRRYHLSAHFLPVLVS
Assay: binders of human FGF22 protein, primary screen, FGF22 synaptogenesis inhibitor project, biophysical, thermal shift, single point (AID 651658)
Settings: recombinant FGF22 thermal shift, SYPRO orange fluorescence; at 9.99 µM; active compounds read high; percent of sucrose octasulfate shift, DMSO zero
Hit rate of the full screen: of about 340,000 compounds, about 5,100 (1.5%) were called active. This is one part of a sample in which actives are shown more often than they occur.
Give bare numbers, in %.

Cc1ccc(S(=O)(=O)N(C)C)cc1NC(=O)c1n[nH]c(=O)c2ccccc12 : -0.104
O=C(NCCc1c[nH]c2ccccc12)C(=O)NCC1CCCO1 (stereo not given) : 1.53
O=[N+]([O-])c1ccc(N2CCN(CC(O)COc3ccccc3)CC2)cc1 (stereo not given) : 43.9

For each of the compounds below, note its activity (Tm shift, normalised).
1. O=[N+]([O-])c1ccc(N2CCOCC2)cc1
2. CC=Cc1ccc2n(c1=O)C[C@@H]1[C@@H](CO)[C@H](C(=O)N[C@H](C)c3ccccc3)N(C(=O)c3cnccn3)[C@H]21 (mixture of isomers)

1: -0.032; 2: -0.323

* * *

Target: Fibroblast growth factor 22 (Homo sapiens)
Experiment: binders of human FGF22 protein, primary screen, FGF22 synaptogenesis inhibitor project, biophysical, thermal shift, single point (AID 651658)
Details: recombinant FGF22 thermal shift, SYPRO orange fluorescence; at 9.99 µM; percent of sucrose octasulfate shift, DMSO zero
Hit rate of the full screen: of about 340,000 compounds, about 5,100 (1.5%) were called active.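 The calls were made as follows: active = mean Tm shift, scaled 0 neutral to 100 positive control, at about 1.3% or above, every replicate too (limit read from the data); inconclusive = no clear call, values can overlap the other calls; inactive = the rest.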 This is one part of a sample in which actives are shown more often than they occur.
Reply using exactly one outcome from active, inactive

Below are worked cases with known answers.
COc1ccc2c3c([nH]c2c1)[C@H](CO)N(C(=O)c1ccccc1)CC31CN(C(=O)Nc2cccc(F)c2)C1 : inactive
COc1ccccc1C(=O)Nn1cnnc1 : inactive
CCn1ccnc1CN(C)C(=O)c1ccc2nc(Cc3ccc(OC)cc3)oc2c1 : active
CCC(C)(C)NC(=O)C(c1cccc(OC)c1OC)N(CC(C)C)C(=O)CCC(=O)Nc1cc(C)on1 (centres undefined) : active
COc1ccccc1-n1c(SCC(=O)Nc2ccc(Cl)cc2)nc(O)c(Cc2ccccc2)c1=O : active

Which outcome was assigned to O=C(CN1CCCCCC1)NCCN1C(=O)S/C(=C\c2ccccc2Cl)C1=O in this test? inactive

Name the outcome recorded for COc1ccccc1C(=O)Nc1ccccc1C(=O)Nc1ccccc1 in the assay. inactive

Name the outcome recorded for O=C(NCC1CC1)[C@H]1[C@H](CO)[C@H]2Cn3c(ccc(/C=C/c4ccccc4)c3=O)[C@@H]1N2C(=O)C1CCC1 in the assay. inactive

Could you kindly confirm the outcome this assay logged for COc1ccccc1C(=O)Nc1ccc(Nc2ccccc2)cc1 ? inactive

Per the records of this test, what outcome belongs to CCC(C)(C)NC(=O)C(c1ccc(OC)cc1)N(C(=O)CCC(=O)Nc1cc(C)on1)c1ccc(OC)cc1OC (centres undefined) ? inactive

I would be grateful if you could indicate the recorded call for COc1ccc(C(C(=O)NC(C)(C)C)N(Cc2ccc(F)cc2)C(=O)CCC(=O)Nc2cc(C)on2)cc1 (centres undefined) . inactive

Query: recorded result category for COc1ccc(NC(=O)N[C@H]2CC[C@@H](CCNC(=O)c3cc(Cl)cc(Cl)c3)O[C@H]2CO)cc1 in this test inactive

What did this assay record as the result for O=C(CSc1nn(-c2ccc(F)cc2)c(=S)s1)NC1CCS(=O)(=O)C1 (centres undefined) ? inactive

Per the records of this test, what outcome belongs to COc1ccc(Cc2nc3ccc(C(=O)N4CCC(N(C)C)C4)cc3o2)cc1 (centres undefined) ? inactive

Lab log entry: CCC1C(=O)NCCN1C(=O)c1ccc2nc(Cc3ccc(OC)cc3)oc2c1 (centres undefined) — outcome as called in the assay? inactive

Which outcome was entered for the compound CC=Cc1ccc2n(c1=O)C[C@@H]1[C@@H](CO)[C@H](C(=O)N(C)C)[C@H]2N1CCc1ccccc1 (mixture of isomers) in this test? inactive

Which outcome was assigned to CNC(=O)C[C@H]1C(=O)N(c2ccc(OC)cc2)C[C@@H]1Cc1ccccc1 in this test? active

In this assay, the call recorded for CCOc1ccc(NC(=O)CSc2nc3c(c(=O)n2-c2ccccc2OC)SCC3)cc1 was what? inactive

What did the test return for COc1ccccc1C(=O)NNC(=O)c1ccc(NC(=O)c2ccccc2)cc1 ? active

* * *

Target: Fibroblast growth factor 22 (Homo sapiens)
Test: binders of human FGF22 protein, primary screen, FGF22 synaptogenesis inhibitor project, biophysical, thermal shift, single point (AID 651658)
Details: recombinant FGF22 thermal shift, SYPRO orange fluorescence; at 9.99 µM; active compounds read high; percent of sucrose octasulfate shift, DMSO zero
Among all 340,000 compounds or so, about 5,100 (1.5%) were called active. The entries come from a sample that favours actives as a whole.
measured.property: activity (Tm shift, normalised) (%)
Answers are plain numbers, in %.

O=C(N/N=C/c1ccc([N+](=O)[O-])cc1)c1c[nH]c2ccccc12 : 1.58
C[C@@H]1CN([C@@H](C)CO)C(=O)Cc2cc(NC(=O)Nc3cccc4ccccc34)ccc2O[C@H]1CN(C)CC1CCCCC1 : 0.094
CCC(=O)N1[C@@H](CO)[C@@H](c2ccccc2)C12CN(C(=O)Cc1ccccc1)C2 : -0.201
O=C(NN=Cc1ccc([N+](=O)[O-])cc1)C1CC1 : -0.001

Then there is this molecule:
I'd like to know its activity (Tm shift, normalised). The molecule in question is O=[N+]([O-])c1ccc(C=NN=Cc2ccc([N+](=O)[O-])cc2)cc1 0
